Provenance of the data: ChEMBL document CHEMBL4118172

pKi: −log10 of the molar value.
Parameter pKi, tested on Adenosine receptor A2a (Homo sapiens), listed per item.
Sequence (P29274 whole entry): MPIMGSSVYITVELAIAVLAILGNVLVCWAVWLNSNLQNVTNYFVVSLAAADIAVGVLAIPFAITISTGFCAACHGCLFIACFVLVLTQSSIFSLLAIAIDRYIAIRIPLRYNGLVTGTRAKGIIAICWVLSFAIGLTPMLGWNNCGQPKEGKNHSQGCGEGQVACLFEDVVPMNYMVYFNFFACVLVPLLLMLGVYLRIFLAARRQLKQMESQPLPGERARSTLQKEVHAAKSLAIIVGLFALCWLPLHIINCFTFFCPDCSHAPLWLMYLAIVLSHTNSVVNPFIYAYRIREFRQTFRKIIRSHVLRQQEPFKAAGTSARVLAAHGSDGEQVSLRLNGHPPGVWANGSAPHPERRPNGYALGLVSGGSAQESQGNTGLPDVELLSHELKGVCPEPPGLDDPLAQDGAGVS

Nc1cccn2cc(-c3ccco3)nc12 | < 5.00

Next compound, pKi to be filled in.
Give the reported pKi for this compound. `c1coc(-c2ccc3nc(-c4ccco4)cn3c2)c1`
5.79

* * *

Experiment: Cytotoxicity against human SH-SY5Y cells after 24 to 72 hrs by MTT assay
Type: cell-based
Catalogue of compounds with associated CC50
Give your result in µM as a bare value.

Study these solved cases before continuing.
COc1ccc(-c2cn3cc(C(=O)NCCc4ccc(O)cc4)cc(N)c3n2)cc1OC | 26.9
COc1ccc(-c2cn3cc(C(=O)NCCCN4CCCCC4)cc(N)c3n2)cc1OC | 49.6
Nc1cc(-c2ccco2)cn2cc(-c3ccccc3)nc12 | 26

Give the reported CC50 for this compound. `COc1ccc(-c2cn3cc(CCc4ccccc4)cc(N)c3n2)cc1OC`
50.4

Give the reported CC50 for this compound. `Nc1cc(-c2ccco2)cn2cc(-c3ccco3)nc12`
2.27

Give the reported CC50 for this compound. `COCCOc1ccc(N2CCN(CCNC(=O)c3cc(N)c4nc(-c5ccc(OC)c(OC)c5)cn4c3)CC2)cc1`
31.8

Give the reported CC50 for this compound. `COc1ccc(-c2cn3cc(-c4ccco4)ccc3n2)cc1OC`
30

Give the reported CC50 for this compound. `Nc1cc(-c2ccccc2)cn2cc(-c3ccco3)nc12`
0.5

Give the reported CC50 for this compound. `COc1ccc(-c2cn3cc(C#Cc4ccccc4)cc(N)c3n2)cc1OC`
66.7

Give the reported CC50 for this compound. `COc1ccc(-c2cn3cc(-c4ccco4)cc(N)c3n2)cc1OC`
36.4

Give the reported CC50 for this compound. `c1ccc(-c2ccc3nc(-c4ccco4)cn3c2)cc1`
0.42

Give the reported CC50 for this compound. `c1coc(-c2ccc3nc(-c4ccco4)cn3c2)c1`
3
